- system under test: PKCε (Homo sapiens)
- Sequence (Q02156 whole entry): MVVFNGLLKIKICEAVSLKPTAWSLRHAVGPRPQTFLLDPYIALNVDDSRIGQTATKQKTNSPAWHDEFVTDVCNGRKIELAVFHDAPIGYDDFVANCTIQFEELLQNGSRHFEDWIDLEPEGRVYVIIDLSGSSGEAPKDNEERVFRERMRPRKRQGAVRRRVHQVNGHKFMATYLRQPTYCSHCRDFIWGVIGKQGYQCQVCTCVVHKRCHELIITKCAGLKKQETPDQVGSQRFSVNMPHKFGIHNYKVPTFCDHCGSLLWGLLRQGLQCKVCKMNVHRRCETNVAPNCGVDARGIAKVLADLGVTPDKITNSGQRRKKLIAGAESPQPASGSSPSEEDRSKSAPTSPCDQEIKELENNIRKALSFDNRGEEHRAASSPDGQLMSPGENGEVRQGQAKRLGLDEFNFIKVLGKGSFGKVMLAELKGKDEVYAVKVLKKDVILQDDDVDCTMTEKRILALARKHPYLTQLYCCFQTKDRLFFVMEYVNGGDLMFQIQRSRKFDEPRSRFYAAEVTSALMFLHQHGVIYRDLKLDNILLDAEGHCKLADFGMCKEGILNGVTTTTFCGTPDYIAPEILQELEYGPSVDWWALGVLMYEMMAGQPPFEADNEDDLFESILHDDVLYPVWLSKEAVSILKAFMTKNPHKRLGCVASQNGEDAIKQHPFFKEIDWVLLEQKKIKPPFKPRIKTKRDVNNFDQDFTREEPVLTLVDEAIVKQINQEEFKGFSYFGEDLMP
- assay text: Protein Kinase C ε assay (SPA)
- condition parameters: human recombinant PKCε, PKCη pseudosubstrate, read-out: IC50, inhibition of PKC ε
- Method: The compounds of formula 1 are tested for their activity on different protein kinases and PKC isoforms using a scintillation proximity assay (SPA, Amersham International plc). ^33P-labeled peptides are captured onto streptavidin coated yttrium silicate SPA beads. β-particles, emitted from the captured ^33P-labeled substrate in close proximity to the bead are able to excite the scintillant, resulting in the generation of quantifiable light. […]
pIC50: −log10 of the molar value.
Reported pIC50 by item:

{"columns": ["input smiles", "property name", "endpoint result"],
 "data": [
  ["CC(=O)c1ccc(-c2cc(Nc3ccc(NS(=O)(=O)c4c(F)cccc4F)cc3)ncn2)cc1", "pIC50", "4.68 to 5.40"],
  ["O=S(=O)(Nc1ccc(Nc2cc(-c3ccc(OCCCN4CCOCC4)cc3)ncn2)cc1)c1c(F)cccc1F", "pIC50", "4.68 to 5.40"],
  ["Cc1csc(-c2cc(Nc3ccc(NS(=O)(=O)c4c(F)cccc4F)cc3)ncn2)c1", "pIC50", "4.68 to 5.40"]
]}

Now for another entry.
Please look at this molecule and report its pIC50: CN1CCN(CCOc2ccc(-c3cc(Nc4ccc(NS(=O)(=O)c5c(F)cccc5F)cc4)ncn3)cc2)CC1
4.68 to 5.40

###

A collection of compounds and their measured IC50
- system under test: Lck (Homo sapiens)
- Sequence (P06239 whole entry): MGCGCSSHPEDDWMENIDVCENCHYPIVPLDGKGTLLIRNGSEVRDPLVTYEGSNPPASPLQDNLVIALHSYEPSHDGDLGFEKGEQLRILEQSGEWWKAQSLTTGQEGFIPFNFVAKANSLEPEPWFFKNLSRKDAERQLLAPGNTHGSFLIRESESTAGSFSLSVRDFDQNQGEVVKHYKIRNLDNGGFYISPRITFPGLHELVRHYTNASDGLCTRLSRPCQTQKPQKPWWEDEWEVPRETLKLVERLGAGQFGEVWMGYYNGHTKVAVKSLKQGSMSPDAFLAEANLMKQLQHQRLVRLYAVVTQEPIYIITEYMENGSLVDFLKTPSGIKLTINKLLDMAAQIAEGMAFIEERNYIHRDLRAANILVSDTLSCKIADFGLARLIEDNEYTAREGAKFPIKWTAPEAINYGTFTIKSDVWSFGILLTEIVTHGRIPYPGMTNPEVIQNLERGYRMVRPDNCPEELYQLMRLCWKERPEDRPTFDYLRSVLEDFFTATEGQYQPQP
- assay text: Lck (p56Lck) assay (SPA)
- condition parameters: human recombinant Lck, read-out: IC50, inhibition of Lck

{"columns": ["input smiles", "endpoint result"],
 "data": [
  ["CN(C)CCCn1ccc2cc(-c3cc(Nc4ccc(NS(=O)(=O)c5c(F)cccc5F)cc4)ncn3)ccc21", "< 3 µM"]
]}

Answer with the recorded IC50 of COc1ccc(S(=O)(=O)Nc2ccc(Nc3cc(-c4ccc5c(ccn5CCCN(C)C)c4)ncn3)cc2)cc1 only.
< 3 µM

###

- system under test: PKA (Homo sapiens)
- assay text: Protein Kinase A assay (SPA)
- condition parameters: human recombinant PKA, read-out: IC50, inhibition of PKA
pIC50: −log10 of the molar value.
# key: entry, value: pIC50

{"columns": ["input smiles", "system under test", "endpoint result"],
 "data": [
  ["O=S(=O)(Nc1ccc(Nc2cc(-c3cccc4ccccc34)ncn2)cc1)c1ccc(Cl)c(Cl)c1", "PKA (Homo sapiens)", "4.80 to 5.52"],
  ["O=S(=O)(Nc1ccc(Nc2cc(-c3ccc4[nH]ccc4c3)ncn2)cc1)c1cccc(F)c1", "PKA (Homo sapiens)", "4.80 to 5.52"]
]}

Next compound, pIC50 to be filled in.
For the compound Cc1csc(-c2cc(Nc3ccc(NS(=O)(=O)c4c(F)cccc4F)cc3)ncn2)c1 , give its measured pIC50 value.
4.80 to 5.52

###

- system under test: PKCζ (Homo sapiens)
- Sequence (Q05513 whole entry): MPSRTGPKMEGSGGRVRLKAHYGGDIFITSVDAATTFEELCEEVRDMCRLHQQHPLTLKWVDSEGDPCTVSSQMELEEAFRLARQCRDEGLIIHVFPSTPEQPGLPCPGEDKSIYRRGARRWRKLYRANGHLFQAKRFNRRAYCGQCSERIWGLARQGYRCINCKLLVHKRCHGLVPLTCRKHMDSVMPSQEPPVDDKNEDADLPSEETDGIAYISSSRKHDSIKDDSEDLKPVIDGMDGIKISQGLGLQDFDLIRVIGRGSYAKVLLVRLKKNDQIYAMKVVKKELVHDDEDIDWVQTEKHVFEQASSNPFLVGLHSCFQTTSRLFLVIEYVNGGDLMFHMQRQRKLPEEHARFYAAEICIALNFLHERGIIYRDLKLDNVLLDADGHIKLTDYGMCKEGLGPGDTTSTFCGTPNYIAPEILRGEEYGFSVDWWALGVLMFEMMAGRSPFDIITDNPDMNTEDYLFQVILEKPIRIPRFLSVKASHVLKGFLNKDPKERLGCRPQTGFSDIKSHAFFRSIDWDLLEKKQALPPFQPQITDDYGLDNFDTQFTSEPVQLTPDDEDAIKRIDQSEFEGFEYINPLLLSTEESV
- assay text: Protein Kinase C ζ assay (SPA)
- condition parameters: human recombinant PKCζ, absence of PMA and phosphatidylserine, read-out: IC50, inhibition of PKC ζ
Structures can show the parent of a compound that is named as a salt.
property name: IC50

{"columns": ["molecule", "property name", "endpoint result"],
 "data": [
  ["O=S(=O)(Nc1ccc(Nc2cc(-c3ccc4c(ccn4CCCN4CCCC4)c3)ncn2)cc1)c1c(F)cccc1F [Example 143, formic acid salt]", "IC50", "15 to 25 µM"]
]}

# context switch: different molecule, same IC50
Input CCN(CC)CCCn1cc(-c2cc(Nc3ccc(NS(=O)(=O)c4ccc(F)cc4F)cc3)ncn2)c2ccccc21 [Example 175, formic acid salt] , output reported IC50.
15 to 25 µM
